Attribution: patent US7605272B2

- target_of_assay: IGF-1R (Homo sapiens, UniProt P08069)
- Construct: purchased Upstate Co. 14-465
- Sequence (P08069 959-1367 limits assumed): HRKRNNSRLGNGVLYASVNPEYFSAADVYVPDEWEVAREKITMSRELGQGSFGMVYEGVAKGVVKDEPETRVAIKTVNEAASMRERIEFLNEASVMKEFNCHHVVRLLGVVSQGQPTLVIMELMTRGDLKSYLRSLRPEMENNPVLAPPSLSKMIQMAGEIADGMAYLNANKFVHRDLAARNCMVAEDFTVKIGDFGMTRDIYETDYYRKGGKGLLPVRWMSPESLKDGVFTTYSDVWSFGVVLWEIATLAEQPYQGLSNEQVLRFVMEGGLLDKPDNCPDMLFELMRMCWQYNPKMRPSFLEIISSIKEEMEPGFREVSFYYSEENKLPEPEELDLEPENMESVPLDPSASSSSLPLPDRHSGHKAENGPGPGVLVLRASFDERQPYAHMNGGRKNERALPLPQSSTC
- assay_name: IGF-1R inhibitory activity (kinase reaction, time-resolved fluoroimmunoassay)
- Assay type: biochemical
- conditions_used: IGF-1R active recombinant enzyme, test compound 10 μmol/L
Counter-ions that a name gives are not always drawn.
property_name: inhibition at 10 µM (%)
Return type: number; implicit unit %.

| molecule | inhibition at 10 µM, % |
| --- | --- |
| COc1cc(/C=C/c2n[nH]c3ccccc23)c(NC(=O)c2sccc2C)cc1OCCCN1CCOCC1 | 97.2 |
| C(=C\c1n[nH]c2ccccc12)/c1ccccc1-c1nc2ccccc2o1 | 59.1 |
| O=C(Nc1ccccc1/C=C/c1n[nH]c2ccccc12)c1ccsc1 | 99.7 |
| Cc1ccsc1C(=O)Nc1cc(C(=O)N2CCN(CCO)CC2)ccc1/C=C/c1n[nH]c2ccccc12 | 97.2 |
| Cc1ccsc1C(=O)Nc1cc(C(=O)N2CCC(O)CC2)ccc1/C=C/c1n[nH]c2ccccc12 [Compound 219, hydrochloride] | 99.4 |

Challenge: If you can, please state the reported inhibition at 10 µM value of `O=C(Nc1ccccc1/C=C/c1n[nH]c2ccccc12)c1ccco1` .
Response given: 99.4

Challenge: If you can, please state the reported inhibition at 10 µM value of `COCCN(CCN1CCOCC1)C(=O)c1ccc(/C=C/c2n[nH]c3ccccc23)c(NC(=O)c2sccc2C)c1` .
Response given: 100

Challenge: If you can, please state the reported inhibition at 10 µM value of Cc1ccsc1C(=O)Nc1cc(C(=O)N2CC[C@@H](O)C2)ccc1/C=C/c1n[nH]c2ccccc12 [Compound 220, hydrochloride] .
Response given: 99.3
